MEASURED_TARGET: CALRdel52 (mutant calreticulin, 52 base pair deletion, Type 1) expressed with MPL on engineered cancer cells (UniProt P27797)
Sequence (P27797 other isoform, or with tags, fused parts or gaps mutant limits assumed): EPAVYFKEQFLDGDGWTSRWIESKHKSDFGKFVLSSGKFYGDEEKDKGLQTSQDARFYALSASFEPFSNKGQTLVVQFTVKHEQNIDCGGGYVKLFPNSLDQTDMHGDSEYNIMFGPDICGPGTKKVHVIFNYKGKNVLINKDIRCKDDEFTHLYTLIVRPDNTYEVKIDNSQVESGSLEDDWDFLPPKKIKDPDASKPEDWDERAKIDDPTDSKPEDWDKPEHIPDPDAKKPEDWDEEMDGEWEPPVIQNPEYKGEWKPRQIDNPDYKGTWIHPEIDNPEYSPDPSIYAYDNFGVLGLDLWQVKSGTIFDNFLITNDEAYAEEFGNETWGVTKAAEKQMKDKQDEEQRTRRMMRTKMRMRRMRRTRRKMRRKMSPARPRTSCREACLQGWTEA
METHOD_DESCRIPTION: cell-based or functional assay
Documented Cytotoxicity EC50, OCI-M2 MPL CALRdel52 cells across a set of binders
Response body: numeric value in µg/mL, unit text excluded.

Consider the following illustrative entries.
{"BINDER": "CALRB75 (MP1004 Fab x CD3W245-LH-scFv, medium affinity) (bispecific antibody, part only; not given: CD3 scFv arm and IgG1 constant regions, V domains shown, not shown: another chain or arm of the molecule; a dimerising Fc or GST; small tags and cut ends) VL: DPMLTQTPSSVSAAVGGTVTINCQSSQSVYNNNWLSWLQQKPGQPPNRLIYDASKLESGVPSRFSGSGSGTQFTLTISGVQSDDAATYYCAGGFTGNVYTFGGGTEVVVK VH: QEQLEESGGRLVTPGTPLTLTCKVSGIDLSNNAISWVRQAPGKGLEYIGVIGNTGDTYYASWAKGRFTISKTSSTTVDLKMTSLTTEDTATYFCVRGPPSYSNSVKNIWGPGTLVTISS", "VAL": 0.115}
{"BINDER": "CALRB79 (MP1016 Fab x CD3W245-LH-scFv, medium affinity) (bispecific antibody, part only; not given: anti-CD3 scFv arm, constant regions, V domains shown, not shown: another chain or arm of the molecule; a dimerising Fc or GST; small tags and cut ends) VL: DPVLTQTESPVSAAVGGTVTINCQASQSVYDDNNLAWYQQKPGQPPKRLIYPASTLASGVSSRFSGSGSGSQFTLTISDVQSDDAATYYCQGEFSCTSADCVAFGGGTEVVVK VH: QEQLKESGGRLVTPGTPLTLTCTASGFSLSNYYMSWVRQAPGKGLEWIGGISSRAGTWYASWAKGRFTISGTSTTMDLKITSPTTEDTATYFCARGLKIWGPGTLVTVSS", "VAL": 0.112}
{"BINDER": "CALRB76 (MP1007 Fab x CD3W245-LH-scFv, medium affinity) (bispecific antibody, part only; not given: CD3 scFv arm and IgG1 constant regions, V domains shown, not shown: another chain or arm of the molecule; a dimerising Fc or GST; small tags and cut ends) VL: DPMLTQTPSSVSAAVGGTVTIGCQSSQSVYDNNWLSWYQQKPGQPPNRLIYDASKLASGVPSRFSGSGSGTQFTLTISGVKSDDAATYYCAGGYTGNVYSFGGGTMVEIK VH: QQLEESGGRLVAPGTPLRLTCTVSGIDLSNNAVSWVRQAPGKGLEYIGVIGNTGTTYYANWAKGRFTISKTSSTTVDLKMTSLTTDDTATYFCVRGPPSYSNSVRNIWGPGTLVTVSS", "VAL": 0.0897}
{"BINDER": "CALRB74 (MP1001 Fab x CD3W245-LH-scFv, medium affinity) (bispecific antibody, part only; not given: CD3 scFv arm and IgG1 constant regions, V domains shown, not shown: another chain or arm of the molecule; a dimerising Fc or GST; small tags and cut ends) VL: YVMMTQTPSSVSAAVGGTVTINCQASQSLYNNNNLAWFQQKPGQPPKRLIYPASTLASGVSSRFKGSGSGTQFTLTISDVQSDDAATYFCLGEFSCSSADCYAFGGGTEVVVK VH: QEQLKESGGRLVTPGTPLTLTCAVSGFSLDIYGMSWVRQAPGKGLEWIGIIYIEGITYYANWAKGRFTISKTSSTTLELKMTSLTTEDTAMYFCVAGVGRIWGPGTLVTVSS", "VAL": 0.0253}
{"BINDER": "CALRB114 (MP1001 Fab x CD3W245-HL-scFv, high affinity) (bispecific antibody, part only; not given: CD3 scFv arm and IgG1 constant regions, V domains shown, not shown: another chain or arm of the molecule; a dimerising Fc or GST; small tags and cut ends) VH: QEQLKESGGRLVTPGTPLTLTCAVSGFSLDIYGMSWVRQAPGKGLEWIGIIYIEGITYYANWAKGRFTISKTSSTTLELKMTSLTTEDTAMYFCVAGVGRIWGPGTLVTVSS VL: YVMMTQTPSSVSAAVGGTVTINCQASQSLYNNNNLAWFQQKPGQPPKRLIYPASTLASGVSSRFKGSGSGTQFTLTISDVQSDDAATYFCLGEFSCSSADCYAFGGGTEVVVK", "VAL": 0.0168}

Now take the following binder into account.
Report Cytotoxicity EC50, OCI-M2 MPL CALRdel52 cells for CALRB118 (MP1016C Fab x CD3W245-HL-scFv, high affinity) (bispecific antibody, part only; not given: CD3 scFv arm and IgG1 constant regions, V domains shown, not shown: another chain or arm of the molecule; a dimerising Fc or GST; small tags and cut ends) VL: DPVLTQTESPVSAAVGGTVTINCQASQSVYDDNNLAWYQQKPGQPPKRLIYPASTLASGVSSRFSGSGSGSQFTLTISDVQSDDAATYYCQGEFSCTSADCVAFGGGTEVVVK VH: QEQLKESGGRLVTPGTPLTLTCTASGFSLSNYYMSWVRQAPGKGLEWIGGISSRAGTWYASWAKGRFTISGTSSTTMDLKITSPTTEDTATYFCARGLKIWGPGTLVTVSS
0.505
